Kd for assorted binders
# system.under.test: T1, RSV F subtype B, furin-cleaved ectodomain stabilized in the postfusion conformation (F ΔFP) (Respiratory syncytial virus subtype B)
# T1 construct: extracellular domain; Trimeric soluble antigen; also called Postfusion subtype B
# method.summary: BLI, IgG on AHQ sensor, 100 nM antigen
property: Kd

binder: ADI-18952 (antibody, V domains shown, full-length IgG from yeast) VH: QVQLVESGGGLVQPGGSLRLSCAASGFAFSNYAMSWVRQAPGKGLEWVSSVSGTGGTTYYADSVNGRFAISRENSRNTLYLQMDSLRVEDTATYYCAKDGLRDLSRVYYIDVWGKGATVTVSS VL: QSVLTQPASVSGSPGQSITISCTGTSRDIGSHDYVSWYQQHPGKAPKLIIYGVNNRPSGLSNRFSGSKSGNTASLTISGLQTEDEGDYYCSSYRNGNTLGVFGTGTKLTVL
property: Kd
endpoint.result: 633 pM

binder: ADI-18933 (antibody, V domains shown, full-length IgG from yeast) VH: QVQLVESGAEVKKPGASVKVACTASGYAFTNYNIHWVRLAPGQGLEWMAIINPGSGGTDYSEKFQGRLTLTSDTSTSTVYMTLGSLRYEDTAFYYCARRGYPDSGSYPLDYWGQGTLVTVSS VL: DIVMTQSPSSLSASLGDRVTITCRAGRSIATYLNWYQQKPGKAPKLLIYGASSLQSGVPSRFSGSGSGTHFTLTISSLQPEDFATYYCQQSYIRPITFGGGTKVEIK
property: Kd
endpoint.result: 616 pM

binder: ADI-18973 (antibody, V domains shown, full-length IgG from yeast) VH: QVQLVQSGPALVKPTQTLTLTCTFGGFSLSRHGMRVTWIRQAPGKALEWLGHIDWDDDKFYRTSLKTRLTISKDPSNNEVVLKMTNMDHVDTATYYCALMRPFWSRDDYYYSIAVWGKGTTVTVSS VL: DIVLTQSPGTLSLSPGDRATLSCRASQSVGSGYVTWYQQKPGQAPRLLIYGASNRAEGIPDRFSGSGSGTDFTLTISGLESEDFVIYYCQLYHRSPGSASQTVWTFGQGTKVEIK
property: Kd
endpoint.result: 394 pM
